Origin of measurements: the supplement of paper PMC10127200

Reported Euclidean distance values for the following compounds.
Tested on: OVCAR4
Assay: Euclidean distance of Cell Painting phenotypic profile (signed KS, 77 features) to DMSO centroid (dimensionless distance); 5 or 10 uM (library dependent); higher = stronger phenotypic change vs DMSO (phenoactivity)
Settings: 48 h
endpoint-name: Euclidean distance

[[record]]
compound = "COC(=O)N(C)c1c(N)nc(-c2nn(Cc3ccccc3F)c3ncccc23)nc1N"
test_value = 0.876

[[record]]
compound = "COc1cc2c(cc1Cc1cccc(Cl)c1F)c(=O)c(C(=O)O)cn2[C@H](CO)C(C)C"
test_value = 1.76

[[record]]
compound = "CC1OC2(CS1)CN1CCC2CC1 (stereo not given)"
test_value = 1.48

[[record]]
compound = "CCOC(=O)N1CCC(=C2c3ccc(Cl)cc3CCc3cccnc32)CC1"
test_value = 1.1

[[record]]
compound = "C=CC(=O)N1CCC(CNc2ncnc(N)c2-c2ccc(Oc3ccccc3)cc2)CC1"
test_value = 0.874

[[record]]
compound = "NCC[C@H](O)C(=O)N[C@@H]1C[C@H](N)[C@@H](O[C@H]2O[C@H](CN)[C@@H](O)[C@H](O)[C@H]2O)[C@H](O)[C@H]1O[C@H]1O[C@H](CO)[C@@H](O)[C@H](N)[C@H]1O [Amikacin hydrate]"
test_value = 1.07

[[record]]
compound = "CC(C)=CCC/C(C)=C/CC/C(C)=C/CC/C(C)=C/CC/C(C)=C/CC/C(C)=C/CC1=C(C)C(=O)c2ccccc2C1=O"
test_value = 1.54

[[record]]
compound = "CCC(C)n1ncn(-c2ccc(N3CCN(c4ccc(OCC5COC(Cn6cncn6)(c6ccc(Cl)cc6Cl)O5)cc4)CC3)cc2)c1=O (stereo not given)"
test_value = 1

[[record]]
compound = "C=CC(=O)Nc1ccc2ncnc(Nc3ccc(OCc4cccc(F)c4)c(Cl)c3)c2c1"
test_value = 3.41

[[record]]
compound = "Cc1c(S(=O)(=O)O)oc2c1C(=O)C(=O)c1c-2ccc2c1CCCC2(C)C [Tanshinone IIA sulfonate (sodium)]"
test_value = 1.24

